Reported pIC50 values for the following molecules.
- measuredTarget: KRAS G12S (Homo sapiens (Human), UniProt P01116+P62937, G12S)
- Sequence (P01116-2 other isoform, or with tags, fused parts or gaps G12S, one chain of several): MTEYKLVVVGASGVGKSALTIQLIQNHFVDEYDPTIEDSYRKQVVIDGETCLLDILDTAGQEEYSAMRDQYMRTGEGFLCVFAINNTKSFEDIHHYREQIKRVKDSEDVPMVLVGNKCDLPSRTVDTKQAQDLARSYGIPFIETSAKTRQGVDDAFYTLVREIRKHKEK
- assayName: Ras-Raf (BRAF RBD) disruption / FRET / MOA assay, KRAS G12S
- Assay type: biochemical
- studyConditions: Ras-Raf disruption/FRET/MOA assay; class symbols; read-out: KRAS G12S FRET data IC50
pIC50: −log10 of the molar value.

- molecule: "C=CC(=O)N1CC[C@H](C(=O)N(C)[C@H](C(=O)N[C@H]2Cc3cc(O)cc(c3)-c3ccc4c(c3)c(c(-c3ccc(CN(C)C)nc3COC)n4CC)CC(C)(C)COC(=O)[C@@H]3CCCN(N3)C2=O)C(C)C)C1"
  pIC50: "6.00 to 7.00"
- molecule: "C=CC(=O)NC[C@H]1CCN1C(=O)N(C)[C@H](C(=O)N[C@H]1Cc2nc(cs2)-c2ccc3c(c2)c(c(-c2cccnc2[C@H](C)OC)n3CC)CC(C)(C)COC(=O)[C@@H]2CCCN(N2)C1=O)C(C)C (atropisomer, axis not shown)"
  pIC50: "5.00 to 6.00"
- molecule: "CCn1c(-c2cncnc2)c2c3cc(ccc31)-c1cccc(c1)[C@@H](OC)[C@H](NC(=O)[C@H](C(C)C)N(C)C(=O)[C@H]1CCN(C(=O)C#CCN3CCOCC3)C1)C(=O)N1CCC[C@H](N1)C(=O)OCC(C)(C)C2"
  pIC50: "< 5.00"
- molecule: "C=CC(=O)N1CC[C@H](C(=O)N(C)[C@H](C(=O)N[C@H]2Cc3nc(cs3)-c3ccc4c(c3)c(c(-c3cccnc3[C@H](C)OC)n4CC)CC(C)(C)CCC[C@@H]3CCCN(N3)C2=O)C(C)C)C1 (atropisomer, axis not shown)"
  pIC50: "< 5.00"
- molecule: "CCn1c(-c2cccnc2[C@H](C)OC)c2c3cc(ccc31)-c1cc(O)cc(c1)C[C@H](NC(=O)[C@H](C(C)C)N1CCC3(CCN(C(=O)/C=C/CN(C)C)CC3)C1=O)C(=O)N1CCC[C@H](N1)C(=O)OCC(C)(C)C2 (atropisomer, axis not shown)"
  pIC50: "6.00 to 7.00"
- molecule: "CCn1c(-c2cccnc2[C@H](C)OC)c2c3cc(ccc31)-c1cc(O)cc(c1)C[C@H](NC(=O)[C@H](C(C)C)N(C)C(=O)C1CCN(C(=O)/C=C/CN(C)C)CC1)C(=O)N1CCC[C@H](N1)C(=O)OCC(C)(C)C2 (atropisomer, axis not shown)"
  pIC50: "6.00 to 7.00"
- molecule: "C=CC(=O)N1CCC(C(=O)N(C)[C@H](C(=O)N[C@H]2Cc3cc(O)cc(c3)-c3ccc4c(c3)c(c(-c3ccccc3CCOC)n4CC)CC(C)(C)COC(=O)[C@@H]3CCCN(N3)C2=O)C(C)C)CC1"
  pIC50: "5.00 to 6.00"
- molecule: "C=CC(=O)N1CC[C@H](C(=O)N(C)[C@H](C(=O)N[C@H]2Cc3cc(cc(O)c3F)-c3ccc4c(c3)c(c(-c3ccccc3CCOC)n4CC)CC(C)(C)COC(=O)[C@@H]3CCCN(N3)C2=O)C(C)C)C1"
  pIC50: "< 5.00"

====

- measuredTarget: KRAS WT (Homo sapiens (Human), UniProt P01116+P62937)
- Sequence (P01116-2 other isoform, or with tags, fused parts or gaps): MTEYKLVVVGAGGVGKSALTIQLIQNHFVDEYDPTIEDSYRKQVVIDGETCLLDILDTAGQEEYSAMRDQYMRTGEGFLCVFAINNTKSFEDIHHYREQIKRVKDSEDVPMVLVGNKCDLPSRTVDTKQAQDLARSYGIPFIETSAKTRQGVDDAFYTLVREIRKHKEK
- Sequence (P62937 whole entry): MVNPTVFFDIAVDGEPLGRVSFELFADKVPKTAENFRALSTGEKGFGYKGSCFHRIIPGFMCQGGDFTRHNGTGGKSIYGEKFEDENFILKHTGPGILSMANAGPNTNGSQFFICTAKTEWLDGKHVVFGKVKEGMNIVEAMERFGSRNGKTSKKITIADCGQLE
- assayName: Ras-Raf (BRAF RBD) disruption / FRET / MOA assay, KRAS WT
- Format: biochemical
- studyConditions: read-out: IC50* KRAS WT FRET data
pIC50: −log10 of the molar value.
experimentalEndpoint: pIC50

- molecule: "CCn1c(-c2cccnc2)c2c3cc(ccc31)-c1cccc(c1)C[C@H](NC(=O)[C@H](C(C)C)N(C)C(=O)[C@H]1CCN(C(=O)C#CCN(C)C)C1)C(=O)N1CCC[C@H](N1)C(=O)OCC(C)(C)C2"
  measuredTarget: "KRAS WT (Homo sapiens (Human), UniProt P01116+P62937)"
  experimentalEndpoint: "pIC50"
  measValue: "5.00 to 6.00"
- molecule: "CCn1c(-c2cccnc2COC)c2c3cc(ccc31)-c1cc(O)cc(c1)C[C@H](NC(=O)[C@H](C(C)C)N(C)C(=O)[C@H]1CCN(C(=O)C#CCCN3CCOCC3)C1)C(=O)N1CCC[C@H](N1)C(=O)OCC(C)(C)C2"
  measuredTarget: "KRAS WT (Homo sapiens (Human), UniProt P01116+P62937)"
  experimentalEndpoint: "pIC50"
  measValue: "5.00 to 6.00"
- molecule: "C=CC(=O)N1CC[C@H](C(=O)N(C)[C@H](C(=O)NC2C[C@@H]3CN(CCO3)c3ccc4c(c3)c(c(-c3cccnc3[C@H](C)OC)n4CC)CC(C)(C)COC(=O)[C@@H]3CCCN(N3)C2=O)C(C)C)C1 (stereo partly shown)"
  measuredTarget: "KRAS WT (Homo sapiens (Human), UniProt P01116+P62937)"
  experimentalEndpoint: "pIC50"
  measValue: "< 5.00"
- molecule: "C=CC(=O)N1CC2CCC1CN2C(=O)N(C)[C@H](C(=O)N[C@H]1Cc2nc(cs2)-c2ccc3c(c2)c(c(-c2cccnc2[C@H](C)OC)n3CC)CC(C)(C)COC(=O)[C@@H]2CCCN(N2)C1=O)C(C)C"
  measuredTarget: "KRAS WT (Homo sapiens (Human), UniProt P01116+P62937)"
  experimentalEndpoint: "pIC50"
  measValue: "6.00 to 7.00"
